# experiment notes: Solubility in NMP
# Assay type: physicochemical
# condition description: organic solvent or mixture; solvent NMP (N-methylpyrrolidone)
readout: solubility
Please give the number followed by its unit.

Observe how each entry below is paired with its result.
c1ccc(-c2ccc(N(c3ccc(-c4ccccc4)cc3)c3ccc(N(c4ccc(-c5ccccc5)cc4)c4ccc(-c5ccccc5)cc4)cc3)cc2)cc1 [Comparison Example 4, reference compound]	2.2 mg/mL
Cc1cccc(C)c1-c1ccc(N(c2ccc(-c3ccccc3)cc2)c2ccc(-c3ccc(N(c4ccc(-c5ccccc5)cc4)c4ccc(-c5c(C)cccc5C)cc4)cc3)cc2)cc1 [Comparison Example 3, reference compound]	2.9 mg/mL
Cc1cccc(C)c1-c1ccc(N(c2ccc3c(c2)C(C)(C)c2ccccc2-3)c2ccc3c(c2)C(C)(C)c2cc(N(c4ccc(-c5c(C)cccc5C)cc4)c4ccc5c(c4)C(C)(C)c4ccccc4-5)ccc2-3)cc1	30 mg/mL

The following molecules each have a reported value; give each one's solubility.
1. Cc1cc(-c2ccc(N(c3ccc(-c4ccccc4)cc3)c3ccc4c(c3)C(C)(C)c3ccccc3-4)cc2)cc(C)c1N(c1ccc(-c2ccccc2)cc1)c1ccc2c(c1)C(C)(C)c1ccccc1-2
2. Cc1cccc(-c2ccc(N(c3ccc(-c4cccc(C)c4)cc3)c3ccc4c(c3)C(C)(C)c3cc(N(c5ccc(-c6cccc(C)c6)cc5)c5ccc(-c6cccc(C)c6)cc5)ccc3-4)cc2)c1
3. Cc1cc(N(c2ccc3c(c2)C(C)(C)c2ccccc2-3)c2ccc3c(c2)C(C)(C)c2ccccc2-3)ccc1-c1ccc(N(c2ccc3c(c2)C(C)(C)c2ccccc2-3)c2ccc3c(c2)C(C)(C)c2ccccc2-3)cc1
4. CC1(C)c2cc(N(c3ccc(-c4ccccc4)cc3)c3ccc(-c4ccccc4)cc3)ccc2-c2ccc(N(c3ccc(-c4ccccc4)cc3)c3ccc(-c4ccccc4)cc3)cc21 [Comparison Example 2, reference compound]

22 mg/mL
28 mg/mL
35 mg/mL
5.2 mg/mL
